Biological target: T1, IL-11R on STAT3 Reporter (Luciferase)-HEK293 cells (UniProt Q14626 23-422)
T1 sequence (looked up): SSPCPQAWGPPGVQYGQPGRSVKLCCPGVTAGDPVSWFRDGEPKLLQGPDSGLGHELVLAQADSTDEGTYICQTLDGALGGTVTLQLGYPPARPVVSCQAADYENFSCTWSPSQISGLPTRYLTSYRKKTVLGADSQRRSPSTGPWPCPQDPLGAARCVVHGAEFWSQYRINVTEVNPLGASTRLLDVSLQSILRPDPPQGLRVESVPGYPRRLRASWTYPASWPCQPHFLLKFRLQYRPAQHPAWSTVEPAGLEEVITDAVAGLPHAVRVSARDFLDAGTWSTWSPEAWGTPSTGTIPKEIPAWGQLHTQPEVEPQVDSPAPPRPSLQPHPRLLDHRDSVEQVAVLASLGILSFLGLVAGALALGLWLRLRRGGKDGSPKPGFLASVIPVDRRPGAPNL
Test: cell-based or functional assay
measured.property: IC50, STAT3 luciferase reporter assay (HEK293), inhibiting IL-11, Mean (µg/mL)
Quick note: give the figure in µg/mL, leave out the unit.

>>> reported_value("mAb10 (antibody, V domains shown, Expressed as human IgG4 (S228P EU)) VH: EVQLLESGGGLVQPGGSLRLSCAASGFTFSWYSMTWVRQAPGKGLEWVSSIVAYGDLTQYADSVKGRFTISRDNSKNTLYLQMNSLRAEDTAVYYCAKGPGWGSFDLWGRGTLVTVSS VL: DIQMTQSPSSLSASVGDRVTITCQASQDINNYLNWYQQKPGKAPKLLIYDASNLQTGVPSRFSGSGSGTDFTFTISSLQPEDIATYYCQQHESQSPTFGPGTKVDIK")
2

Task: Recorded IC50, STAT3 luciferase reporter assay (HEK293), inhibiting IL-11, Mean of mAb12 (antibody, V domains shown, Expressed as human IgG4 (S228P EU)) VH: EVQLLESGGGLVQPGGSLRLSCAASGFTFSWYSMTWVRQAPGKGLEWVSSIVPYGDLTQYADSVKGRFTISRDNSKNTLYLQMNSLRAEDTAVYYCAKGPGWYSFDLWGRGTLVTVSS VL: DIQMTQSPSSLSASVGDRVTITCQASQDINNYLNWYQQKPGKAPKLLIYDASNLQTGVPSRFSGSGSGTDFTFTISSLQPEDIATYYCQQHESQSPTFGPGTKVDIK , please.
Output: 0.41
